// data source = patent US11117931B2

- Tested on: erythrocytes of a mouse (Balb/c)
- METHOD DESCRIPTION: Hemolytic activity
- Assay type: cell-based
- PARTICULARS: peptide concentration 100 μM
Where no end group is shown, it is not given here.
OBSERVABLE: Erythrocyte disrupting ability (%)

                       substance                      observable  recorded_value
0  ILKKLLEGVKSI-NH2 [Hp1404-T1b]  Erythrocyte disrupting ability               0
1  ILKKLWEGVKSI-NH2 [Hp1404-T1a]  Erythrocyte disrupting ability               0
2  ILKKLLKKVKKI-NH2 [Hp1404-T1e]  Erythrocyte disrupting ability            0.15
3  ILKKLLKKVKSI-NH2 [Hp1404-T1d]  Erythrocyte disrupting ability               0
4  ILKKLLKGVKSI-NH2 [Hp1404-T1c]  Erythrocyte disrupting ability               0
5    GILGKLWEGVKSIF-NH2 [Hp1404]  Erythrocyte disrupting ability           92.64
6   ILGKLWEGVKSI-NH2 [Hp1404-T1]  Erythrocyte disrupting ability               0

* * *

- Tested on: erythrocytes of a mouse (Balb/c)
- METHOD DESCRIPTION: Hemolytic activity
- Assay type: cell-based
- PARTICULARS: peptide concentration 6.25 μM
Where no end group is shown, it is not given here.
OBSERVABLE: Erythrocyte disrupting ability

>>> print(df.to_string())
                       substance  recorded_value
0  ILKKLWEGVKSI-NH2 [Hp1404-T1a]              0%
1  ILKKLLKKVKKI-NH2 [Hp1404-T1e]           0.10%
2  ILKKLLEGVKSI-NH2 [Hp1404-T1b]           0.07%
3    GILGKLWEGVKSIF-NH2 [Hp1404]           0.01%
4   ILGKLWEGVKSI-NH2 [Hp1404-T1]              0%
5  ILKKLLKKVKSI-NH2 [Hp1404-T1d]              0%
6  ILKKLLKGVKSI-NH2 [Hp1404-T1c]              0%

* * *

viability at 24 h, 200 µM by entry:
- METHOD DESCRIPTION: Cytotoxicity in normal cell line (MTT)
- Format: cell-based
- PARTICULARS: human, HaCaT keratinocytes, peptide concentration 200 μM, HaCaT, 24 hours; read-out: Cell survival ability
Where no end group is shown, it is not given here.
OBSERVABLE: viability at 24 h, 200 µM (%)

>>> df
                       substance                 observable  u  recorded_value
0  ILKKLWEGVKSI-NH2 [Hp1404-T1a]  viability at 24 h, 200 µM  %            30.7
1  ILKKLLKKVKKI-NH2 [Hp1404-T1e]  viability at 24 h, 200 µM  %             100
2   ILGKLWEGVKSI-NH2 [Hp1404-T1]  viability at 24 h, 200 µM  %             100
3    GILGKLWEGVKSIF-NH2 [Hp1404]  viability at 24 h, 200 µM  %               0
4  ILKKLLEGVKSI-NH2 [Hp1404-T1b]  viability at 24 h, 200 µM  %            31.9
